Measured values drawn from ChEMBL document CHEMBL1142334 for this set.

The compounds below have reported pKi for Cannabinoid receptor 1 (Homo sapiens, UniProt P21554).
// pKi here means minus log10 of the molar concentration (mol/L)

[
  {
    "compound": "Cc1c(C(=O)NCCc2ccccc2)oc2ccc(S(=O)(=O)N3CC(C)CC(C)C3)cc12 (stereo not drawn)",
    "pKi": 6.70
  },
  {
    "compound": "Cc1ccc(CNC(=O)c2oc3ccc(S(=O)(=O)N4CC(C)CC(C)C4)cc3c2C)cc1 (stereo not drawn)",
    "pKi": 7.10
  },
  {
    "compound": "Cc1c(C(=O)N(C)Cc2ccccc2)oc2ccc(S(=O)(=O)N3CC(C)CC(C)C3)cc12 (stereo not drawn)",
    "pKi": 7.23
  }
]

API: value(readout=pKi, system=Cannabinoid receptor 1 (Homo sapiens, UniProt P21554)) for record Cc1c(C(=O)NC2CCCc3ccccc32)oc2ccc(S(=O)(=O)N3CC(C)CC(C)C3)cc12 (stereo not drawn) 8.30

API: value(readout=pKi, system=Cannabinoid receptor 1 (Homo sapiens, UniProt P21554)) for record Cc1c(C(=O)NCc2ccccc2Cl)oc2ccc(S(=O)(=O)N3CC(C)CC(C)C3)cc12 (stereo not drawn) 7.24

API: value(readout=pKi, system=Cannabinoid receptor 1 (Homo sapiens, UniProt P21554)) for record CCCCNC(=O)c1oc2ccc(S(=O)(=O)N3CC(C)CC(C)C3)cc2c1C (stereo not drawn) 7.03

API: value(readout=pKi, system=Cannabinoid receptor 1 (Homo sapiens, UniProt P21554)) for record Cc1c(C(=O)NC2CCCC2)oc2ccc(S(=O)(=O)N3CC(C)CC(C)C3)cc12 (stereo not drawn) 7.05

API: value(readout=pKi, system=Cannabinoid receptor 1 (Homo sapiens, UniProt P21554)) for record COc1ccccc1CNC(=O)c1oc2ccc(S(=O)(=O)N3CC(C)CC(C)C3)cc2c1C (stereo not drawn) 7.24

* * *

Molecular target: Cannabinoid receptor 1 (Homo sapiens, UniProt P21554)
Sequence (P21554 whole entry): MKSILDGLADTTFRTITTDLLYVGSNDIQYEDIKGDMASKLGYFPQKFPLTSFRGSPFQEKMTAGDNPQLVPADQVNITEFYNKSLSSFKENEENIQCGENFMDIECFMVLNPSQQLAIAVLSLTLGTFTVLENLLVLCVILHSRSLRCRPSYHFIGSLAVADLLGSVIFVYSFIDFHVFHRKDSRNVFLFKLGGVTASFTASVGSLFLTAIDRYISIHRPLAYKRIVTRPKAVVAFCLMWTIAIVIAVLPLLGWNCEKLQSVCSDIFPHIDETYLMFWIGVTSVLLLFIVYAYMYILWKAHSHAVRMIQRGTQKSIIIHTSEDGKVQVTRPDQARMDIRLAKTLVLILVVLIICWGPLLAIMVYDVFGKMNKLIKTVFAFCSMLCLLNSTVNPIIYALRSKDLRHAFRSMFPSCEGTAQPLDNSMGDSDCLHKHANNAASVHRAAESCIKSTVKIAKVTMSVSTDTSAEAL
Experiment: Displacement of radioligand from human CB1 receptor expressed in HEK293 cells at 10 uM
Format: cell-based
Assign Criterion met whenever inhibition does not fall below 90%; assign Criterion not met whenever it does.

[
  {
    "compound": "Cc1c(C(=O)N2CCN(C)CC2)oc2ccc(S(=O)(=O)N3CC(C)CC(C)C3)cc12 (centres undefined)",
    "target or system": "Cannabinoid receptor 1 (Homo sapiens, UniProt P21554)",
    "assigned class": "Criterion not met"
  }
]

In plain terms: is recorded inhibition at least 90% for CCN(CC)CCCNC(=O)c1oc2ccc(S(=O)(=O)N3CC(C)CC(C)C3)cc2c1C (centres undefined) ? Criterion not met

In plain terms: is recorded inhibition at least 90% for Cc1c(C(=O)NC2CCCCC2)oc2ccc(S(=O)(=O)N3CC(C)CC(C)C3)cc12 (centres undefined) ? Criterion met

In plain terms: is recorded inhibition at least 90% for CCN(CC)S(=O)(=O)c1ccc2oc(C(=O)N(C)Cc3ccccc3)c(C)c2c1 ? Criterion not met

In plain terms: is recorded inhibition at least 90% for Cc1c(C(=O)NCc2cccnc2)oc2ccc(S(=O)(=O)N3CC(C)CC(C)C3)cc12 (centres undefined) ? Criterion not met

In plain terms: is recorded inhibition at least 90% for Cc1c(C(=O)N(C)Cc2ccccc2)oc2ccc(S(=O)(=O)N3CCCC3)cc12 ? Criterion not met

In plain terms: is recorded inhibition at least 90% for Cc1c(C(=O)N(C)Cc2ccccc2)oc2ccc(S(=O)(=O)N3CC(C)CC(C)C3)cc12 (centres undefined) ? Criterion met

In plain terms: is recorded inhibition at least 90% for Cc1c(C(=O)NC2CCCc3ccccc32)oc2ccc(S(=O)(=O)N3CC(C)CC(C)C3)cc12 (centres undefined) ? Criterion met

In plain terms: is recorded inhibition at least 90% for Cc1ccc(CNC(=O)c2oc3ccc(S(=O)(=O)N4CC(C)CC(C)C4)cc3c2C)cc1 (centres undefined) ? Criterion met

In plain terms: is recorded inhibition at least 90% for Cc1c(C(=O)NCc2ccc(F)cc2)oc2ccc(S(=O)(=O)N3CC(C)CC(C)C3)cc12 (centres undefined) ? Criterion met

In plain terms: is recorded inhibition at least 90% for Cc1c(C(=O)NC2CCCC2)oc2ccc(S(=O)(=O)N3CC(C)CC(C)C3)cc12 (centres undefined) ? Criterion met
